The measurements presented in this section are drawn from patent US20210332142A1.

Biological target: T1, recombinant cyno Tie2 extracellular domain (cynomolgus monkey, UniProt Q02763 23-748 (human entry))
T1 construct: also called Recombinant cyno Tie2 ECD; cy Tie2
T1 chain: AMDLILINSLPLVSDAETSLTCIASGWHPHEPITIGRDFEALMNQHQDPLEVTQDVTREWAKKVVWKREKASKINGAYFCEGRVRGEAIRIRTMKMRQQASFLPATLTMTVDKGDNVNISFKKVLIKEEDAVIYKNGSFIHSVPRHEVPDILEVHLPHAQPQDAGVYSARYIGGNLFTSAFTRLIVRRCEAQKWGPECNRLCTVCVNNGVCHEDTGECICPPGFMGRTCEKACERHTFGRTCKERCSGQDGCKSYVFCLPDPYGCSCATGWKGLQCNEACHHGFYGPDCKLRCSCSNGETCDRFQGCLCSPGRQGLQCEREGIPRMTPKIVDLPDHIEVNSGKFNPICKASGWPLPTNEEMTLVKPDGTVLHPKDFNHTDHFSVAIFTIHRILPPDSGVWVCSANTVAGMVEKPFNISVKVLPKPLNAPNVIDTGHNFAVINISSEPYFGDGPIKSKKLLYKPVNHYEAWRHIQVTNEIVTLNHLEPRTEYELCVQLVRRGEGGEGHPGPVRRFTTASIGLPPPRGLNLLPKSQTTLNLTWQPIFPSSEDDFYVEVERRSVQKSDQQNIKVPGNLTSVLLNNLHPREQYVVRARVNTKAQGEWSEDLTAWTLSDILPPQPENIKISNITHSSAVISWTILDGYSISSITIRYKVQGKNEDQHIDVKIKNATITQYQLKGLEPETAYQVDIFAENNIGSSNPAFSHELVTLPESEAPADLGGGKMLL
Assay: SPR, IgG captured, 37C
# 1 (yes) = Normalized Binding Signal, 1500 nM below 0.1 (exclusive); 0 (no) = Normalized Binding Signal, 1500 nM at/above 0.1

Observe how each entry below is paired with its result.
{"Binder": "Tie2.1.M100cN (antibody, IgG1, name in Kabat numbering, V domains shown, hIgG1) VH: EVQLVESGGGLVQPGGSLRLSCAASGFTFSNTDISWVRQAPGKGLEWVGRISPSDGNTYYADSVKGRFTISADTSKNTAYLQMNSLRAEDTAVYYCARRTRWASWANDYWGQGTLVTVSS VL: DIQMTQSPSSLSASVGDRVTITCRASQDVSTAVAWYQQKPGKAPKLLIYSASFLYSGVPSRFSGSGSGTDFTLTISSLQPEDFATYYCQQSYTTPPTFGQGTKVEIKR", "Group": "0 (no)"}
{"Binder": "Tie2.1.M100cI (antibody, IgG1, name in Kabat numbering, V domains shown, hIgG1) VH: EVQLVESGGGLVQPGGSLRLSCAASGFTFSNTDISWVRQAPGKGLEWVGRISPSDGNTYYADSVKGRFTISADTSKNTAYLQMNSLRAEDTAVYYCARRTRWASWAIDYWGQGTLVTVSS VL: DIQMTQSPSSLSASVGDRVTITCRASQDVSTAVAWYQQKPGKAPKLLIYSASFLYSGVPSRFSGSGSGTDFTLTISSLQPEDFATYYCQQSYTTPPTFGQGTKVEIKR", "Group": "0 (no)"}

Input: Is it true that Normalized Binding Signal, 1500 nM reported for Tie2.1.M100cC (antibody, IgG1, name in Kabat numbering, V domains shown, hIgG1) VH: EVQLVESGGGLVQPGGSLRLSCAASGFTFSNTDISWVRQAPGKGLEWVGRISPSDGNTYYADSVKGRFTISADTSKNTAYLQMNSLRAEDTAVYYCARRTRWASWACDYWGQGTLVTVSS VL: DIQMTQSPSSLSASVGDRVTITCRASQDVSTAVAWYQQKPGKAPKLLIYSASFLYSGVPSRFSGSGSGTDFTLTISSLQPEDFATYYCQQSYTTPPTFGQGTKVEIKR is less than 0.1?
Output: 0 (no)

Input: Item Tie2.1.M100cT (antibody, IgG1, name in Kabat numbering, V domains shown, hIgG1) VH: EVQLVESGGGLVQPGGSLRLSCAASGFTFSNTDISWVRQAPGKGLEWVGRISPSDGNTYYADSVKGRFTISADTSKNTAYLQMNSLRAEDTAVYYCARRTRWASWATDYWGQGTLVTVSS VL: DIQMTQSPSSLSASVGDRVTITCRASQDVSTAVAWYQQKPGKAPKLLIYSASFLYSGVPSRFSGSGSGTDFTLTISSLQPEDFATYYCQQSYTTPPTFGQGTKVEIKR : Normalized Binding Signal, 1500 nM beneath 0.1, strictly?
Output: 1 (yes)

Input: Dear reviewer, please state whether Tie2.1.M100cW (antibody, IgG1, name in Kabat numbering, V domains shown, hIgG1) VH: EVQLVESGGGLVQPGGSLRLSCAASGFTFSNTDISWVRQAPGKGLEWVGRISPSDGNTYYADSVKGRFTISADTSKNTAYLQMNSLRAEDTAVYYCARRTRWASWAWDYWGQGTLVTVSS VL: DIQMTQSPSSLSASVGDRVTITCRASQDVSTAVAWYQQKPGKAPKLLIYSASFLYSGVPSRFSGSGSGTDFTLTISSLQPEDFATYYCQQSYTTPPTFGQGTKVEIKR has Normalized Binding Signal, 1500 nM strictly beneath 0.1.
Output: 0 (no)
